- target desc: SMARCA2 (Homo sapiens)
- protocol summary: SMARCA2 Western blot degradation in MV4-11 cells
- Assay type: cell-based
- Parameters: SMARCA2/SMARCA4 protein degradation selectivity in MV4-11 cells; endogenous in cells; host or cells: MV4-11
- test context: MV4-11 cells, 24 h; read-out: SMARCA2 MSD MV411 degradation 24 h: Mean external-Abs DC50
Measured DC50, listed per entry for reference.

Which measured DC50 value corresponds to Cc1ncsc1-c1ccc(CNC(=O)[C@@H]2C[C@@H](O)CN2C(=O)[C@@H](NC(=O)[C@H]2CC[C@H](c3ccc(-c4cnc(N5CCN6c7cc(-c8ccccc8O)nnc7NC[C@H]6C5)nc4)cc3)CC2)C(C)(C)C)cc1 ?
10 to 100 nM

###

- target desc: SMARCA2 (Homo sapiens, UniProt P51531)
- Sequence (P51531 whole entry): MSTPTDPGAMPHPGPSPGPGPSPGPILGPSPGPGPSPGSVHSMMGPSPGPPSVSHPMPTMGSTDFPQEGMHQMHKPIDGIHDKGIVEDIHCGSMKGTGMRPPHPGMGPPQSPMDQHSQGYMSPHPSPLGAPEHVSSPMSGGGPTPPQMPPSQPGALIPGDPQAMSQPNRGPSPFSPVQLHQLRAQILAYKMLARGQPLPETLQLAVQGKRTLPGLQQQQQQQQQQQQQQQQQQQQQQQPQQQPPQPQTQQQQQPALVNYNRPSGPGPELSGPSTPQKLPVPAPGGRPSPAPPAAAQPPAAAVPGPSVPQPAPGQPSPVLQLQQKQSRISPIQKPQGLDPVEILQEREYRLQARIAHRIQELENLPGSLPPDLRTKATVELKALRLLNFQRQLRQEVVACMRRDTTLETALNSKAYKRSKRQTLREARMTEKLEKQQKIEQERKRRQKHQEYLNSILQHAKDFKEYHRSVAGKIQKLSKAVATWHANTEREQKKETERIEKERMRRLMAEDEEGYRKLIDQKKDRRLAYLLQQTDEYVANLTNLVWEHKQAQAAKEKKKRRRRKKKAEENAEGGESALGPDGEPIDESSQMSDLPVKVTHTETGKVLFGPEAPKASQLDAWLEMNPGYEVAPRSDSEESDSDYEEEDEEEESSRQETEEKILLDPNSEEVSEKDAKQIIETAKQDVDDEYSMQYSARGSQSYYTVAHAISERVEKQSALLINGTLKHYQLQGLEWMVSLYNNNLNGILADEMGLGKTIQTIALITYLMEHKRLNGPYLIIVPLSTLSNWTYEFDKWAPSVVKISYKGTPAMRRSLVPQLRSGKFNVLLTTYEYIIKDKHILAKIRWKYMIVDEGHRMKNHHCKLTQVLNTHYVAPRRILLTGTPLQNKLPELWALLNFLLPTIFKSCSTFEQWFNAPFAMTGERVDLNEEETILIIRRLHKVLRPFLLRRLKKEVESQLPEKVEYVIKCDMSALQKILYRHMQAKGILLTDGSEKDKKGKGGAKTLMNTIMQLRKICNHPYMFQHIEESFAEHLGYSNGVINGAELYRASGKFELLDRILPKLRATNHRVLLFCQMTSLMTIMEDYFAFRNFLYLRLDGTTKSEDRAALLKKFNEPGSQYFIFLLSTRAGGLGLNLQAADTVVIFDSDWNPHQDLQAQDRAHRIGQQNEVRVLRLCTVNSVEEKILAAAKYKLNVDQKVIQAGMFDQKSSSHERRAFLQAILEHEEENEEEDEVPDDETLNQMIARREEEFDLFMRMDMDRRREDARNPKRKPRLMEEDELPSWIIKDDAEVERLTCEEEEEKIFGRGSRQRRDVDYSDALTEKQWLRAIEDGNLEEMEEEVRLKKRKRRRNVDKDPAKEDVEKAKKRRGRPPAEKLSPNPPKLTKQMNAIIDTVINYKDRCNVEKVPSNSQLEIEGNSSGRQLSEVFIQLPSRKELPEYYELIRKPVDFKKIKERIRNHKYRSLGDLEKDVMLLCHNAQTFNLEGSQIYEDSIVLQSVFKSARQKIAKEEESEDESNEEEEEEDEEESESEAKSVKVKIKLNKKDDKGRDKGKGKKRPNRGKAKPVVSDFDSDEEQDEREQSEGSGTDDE
- protocol summary: MSD SMARCA2 degradation in A549 cell line
- Type: cell-based
- test context: A549, A549 cells, 24 h
observed property: Dmax

Previously resolved entries follow.
compound	Dmax
C#Cc1ccc(CNC(=O)[C@@H]2C[C@@H](O)CN2C(=O)[C@@H](NC(=O)[C@H]2CCC3(CC2)C[C@H](N2CCC(c4cnc(N5CCN6c7cc(-c8cccc(F)c8O)nnc7NC[C@H]6C5)nc4)CC2)C3)C(C)(C)C)cc1 (single isomer, unassigned)	> 90%
Cc1ncsc1-c1ccc(CNC(=O)[C@@H]2C[C@@H](O)CN2C(=O)C(c2cc(OCCN3CCC(N4CCC(c5cnc(N6CCc7[nH]c8nnc(-c9ccccc9O)cc8c7[C@H]6C)nc5)CC4)CC3)no2)C(C)C)cc1 (stereo partly shown)	> 90%
Cc1ncsc1-c1ccc(CNC(=O)[C@@H]2C[C@@H](O)CN2C(=O)[C@@H](NC(=O)[C@H]2CC3(C2)C[C@H](N2CCN(c4cnc(N5CCc6[nH]c7nnc(-c8ccccc8O)cc7c6[C@H]5C)nc4)CC2)C3)C(C)(C)C)cc1 (single isomer, unassigned)	> 90%

Could you now consider this next compound?
Which measured Dmax value corresponds to C#Cc1ccc([C@H](C)NC(=O)[C@@H]2C[C@@H](O)CN2C(=O)[C@H](c2cc(OCCN3CCN4c5cc(-c6ccccc6O)nnc5NC[C@H]4C3)no2)C(C)C)cc1 (single isomer, unassigned) ?
50 to 70%

###

- target desc: SMARCA2 (Homo sapiens, UniProt P51531)
- protocol summary: SMARCA2 Western blot degradation in MV4-11 cells
- Type: cell-based
- Parameters: SMARCA2/SMARCA4 protein degradation selectivity in MV4-11 cells; endogenous in cells; host or cells: MV4-11
- test context: MV4-11 cells, 24 h; read-out: SMARCA2 MSD MV411 degradation 24 h: Mean external-Abs DC50
Measured DC50, listed per entry for reference.

Previously resolved entries follow.
compound	DC50
C#Cc1ccc2c(c1)OCC[C@@H]2NC(=O)[C@@H]1C[C@@H](O)CN1C(=O)[C@@H](NC(=O)N1CC2(CC(N3CCC(c4cnc(N5CCc6[nH]c7nnc(-c8ccccc8O)cc7c6[C@H]5C)nc4)CC3)C2)C1)C(C)(C)C (single isomer, unassigned)	> 100 nM
C#Cc1ccc(CNC(=O)[C@@H]2C[C@@H](O)CN2C(=O)[C@@H](NC(=O)N2CC3(CC(N4CCC(c5cnc(N6CCc7[nH]c8nnc(-c9ccccc9O)cc8c7[C@H]6C)nc5)CC4)C3)C2)C(C)(C)C)c(OCCCN(C)C)c1	10 to 100 nM
C#Cc1ccc([C@H](C)NC(=O)[C@@H]2C[C@@H](O)CN2C(=O)[C@@H](NC(=O)[C@H]2CCC3(CC2)C[C@H](N2CCC(c4cnc(N5CCN6c7cc(-c8ccccc8O)nnc7NC[C@H]6C5)nc4)CC2)C3)C(C)(C)C)cc1 (single isomer, unassigned) [I-56]	1 to 10 nM
Cc1ncsc1-c1ccc([C@H](C)NC(=O)[C@@H]2C[C@@H](O)CN2C(=O)[C@@H](NC(=O)Cc2ccc(CCCC(=O)N3CCN4c5cc(-c6ccccc6O)nnc5NC[C@H]4C3)cc2)C(C)(C)C)cc1 (single isomer, unassigned)	1 to 10 nM
C#Cc1ccc(CNC(=O)[C@@H]2C[C@@H](O)CN2C(=O)[C@H](NC(=O)N2CC3(CC(N4CCC(c5cnc(N6CCc7[nH]c8nnc(-c9ccccc9O)cc8c7[C@H]6C)nc5)CC4)C3)C2)C(C)(C)CCN2CCN[C@H](C(=O)O)C2)cc1	> 100 nM
C#Cc1ccc(CNC(=O)[C@@H]2C[C@@H](O)CN2C(=O)[C@@H](NC(=O)[C@H]2CCC3(CC2)C[C@H](N2CCC(c4cnc(N5CCN6c7cc(-c8ccccc8O)nnc7NC[C@H]6C5)nc4)CC2)C3)C(C)(C)C)c(OCCCOC)c1 (single isomer, unassigned) [I-149]	1 to 10 nM
C#Cc1ccc(CNC(=O)[C@@H]2C[C@@H](O)CN2C(=O)[C@@H](N(CCN(C)C)C(=O)N2CC3(CC(N4CCC(c5cnc(N6CCc7[nH]c8nnc(-c9ccccc9O)cc8c7[C@H]6C)nc5)CC4)C3)C2)C(C)(C)C)cc1	> 100 nM
C#Cc1ccc([C@H](CO)NC(=O)[C@@H]2C[C@@H](O)CN2C(=O)[C@@H](NC(=O)N2CC3(CC(N4CCC(c5cnc(N6CCc7[nH]c8nnc(-c9ccccc9O)cc8c7[C@H]6C)nc5)CC4)C3)C2)C(C)(C)C)nc1 (single isomer, unassigned)	1 to 10 nM
Cc1ncsc1-c1ccc(CNC(=O)[C@@H]2C[C@@H](O)CN2C(=O)[C@H](c2cc(N3CC4(CC(N5CCC(c6cnc(N7CCN8c9cc(-c%10ccccc%10O)nnc9NC[C@H]8C7)nc6)CC5)C4)C3)no2)C(C)C)cc1 (single isomer, unassigned)	1 to 10 nM
C#Cc1ccc(CNC(=O)[C@@H]2C[C@@H](O)CN2C(=O)[C@@H](NC(=O)N2CCN(CC3CCN([C@H]4CC[C@@H](N5CCc6[nH]c7nnc(-c8ccccc8O)cc7c6[C@H]5C)CC4)CC3)CC2)C(C)(C)C)cc1	> 100 nM

Which measured DC50 value corresponds to C#Cc1ccc(CNC(=O)[C@@H]2C[C@@H](O)CN2C(=O)[C@@H](NC(=O)N2CC3(CC(N4CCN([C@H]5CC[C@H](N6CCc7[nH]c8nnc(-c9ccccc9O)cc8c7[C@H]6C)CC5)CC4)C3)C2)C(C)(C)C)cc1 ?
10 to 100 nM

Which measured DC50 value corresponds to C#Cc1ccc([C@H](C)NC(=O)[C@@H]2C[C@@H](O)CN2C(=O)[C@H](c2cc(OCCN3CCN4c5cc(-c6ccccc6O)nnc5NC[C@H]4C3)no2)C(C)C)cc1 (single isomer, unassigned) ?
> 100 nM

###

- target desc: SMARCA2 (Homo sapiens, UniProt P51531)
- protocol summary: MSD SMARCA2 degradation in A549 cell line
- Format: cell-based
- test context: A549, A549 cells, 24 h
observed property: Dmax

compound	Dmax
C#Cc1ccc(CNC(=O)[C@@H]2C[C@@H](O)CN2C(=O)[C@@H](NC(=O)N2CC3(CC(N4CCC(N5CCC(N6CCc7[nH]c8nnc(-c9ccccc9O)cc8c7[C@H]6C)C5)CC4)C3)C2)C(C)(C)C)cc1 (mixture of isomers)	> 90%

Which measured Dmax value corresponds to C#Cc1ccc(CNC(=O)[C@@H]2C[C@@H](O)CN2C(=O)[C@@H](NC(=O)[C@H]2CCC3(CC2)C[C@H](N2CCC(N(C)CCN4CCN5c6cc(-c7ccccc7O)nnc6NC[C@H]5C4)CC2)C3)C(C)(C)C)cc1 (single isomer, unassigned) ?
> 90%

###

- target desc: SMARCA4 (Homo sapiens)
- Construct: SMARCA2/SMARCA4 protein degradation selectivity in MV4-11 cells; endogenous in cells; host or cells: MV4-11
- Sequence (P51532 whole entry): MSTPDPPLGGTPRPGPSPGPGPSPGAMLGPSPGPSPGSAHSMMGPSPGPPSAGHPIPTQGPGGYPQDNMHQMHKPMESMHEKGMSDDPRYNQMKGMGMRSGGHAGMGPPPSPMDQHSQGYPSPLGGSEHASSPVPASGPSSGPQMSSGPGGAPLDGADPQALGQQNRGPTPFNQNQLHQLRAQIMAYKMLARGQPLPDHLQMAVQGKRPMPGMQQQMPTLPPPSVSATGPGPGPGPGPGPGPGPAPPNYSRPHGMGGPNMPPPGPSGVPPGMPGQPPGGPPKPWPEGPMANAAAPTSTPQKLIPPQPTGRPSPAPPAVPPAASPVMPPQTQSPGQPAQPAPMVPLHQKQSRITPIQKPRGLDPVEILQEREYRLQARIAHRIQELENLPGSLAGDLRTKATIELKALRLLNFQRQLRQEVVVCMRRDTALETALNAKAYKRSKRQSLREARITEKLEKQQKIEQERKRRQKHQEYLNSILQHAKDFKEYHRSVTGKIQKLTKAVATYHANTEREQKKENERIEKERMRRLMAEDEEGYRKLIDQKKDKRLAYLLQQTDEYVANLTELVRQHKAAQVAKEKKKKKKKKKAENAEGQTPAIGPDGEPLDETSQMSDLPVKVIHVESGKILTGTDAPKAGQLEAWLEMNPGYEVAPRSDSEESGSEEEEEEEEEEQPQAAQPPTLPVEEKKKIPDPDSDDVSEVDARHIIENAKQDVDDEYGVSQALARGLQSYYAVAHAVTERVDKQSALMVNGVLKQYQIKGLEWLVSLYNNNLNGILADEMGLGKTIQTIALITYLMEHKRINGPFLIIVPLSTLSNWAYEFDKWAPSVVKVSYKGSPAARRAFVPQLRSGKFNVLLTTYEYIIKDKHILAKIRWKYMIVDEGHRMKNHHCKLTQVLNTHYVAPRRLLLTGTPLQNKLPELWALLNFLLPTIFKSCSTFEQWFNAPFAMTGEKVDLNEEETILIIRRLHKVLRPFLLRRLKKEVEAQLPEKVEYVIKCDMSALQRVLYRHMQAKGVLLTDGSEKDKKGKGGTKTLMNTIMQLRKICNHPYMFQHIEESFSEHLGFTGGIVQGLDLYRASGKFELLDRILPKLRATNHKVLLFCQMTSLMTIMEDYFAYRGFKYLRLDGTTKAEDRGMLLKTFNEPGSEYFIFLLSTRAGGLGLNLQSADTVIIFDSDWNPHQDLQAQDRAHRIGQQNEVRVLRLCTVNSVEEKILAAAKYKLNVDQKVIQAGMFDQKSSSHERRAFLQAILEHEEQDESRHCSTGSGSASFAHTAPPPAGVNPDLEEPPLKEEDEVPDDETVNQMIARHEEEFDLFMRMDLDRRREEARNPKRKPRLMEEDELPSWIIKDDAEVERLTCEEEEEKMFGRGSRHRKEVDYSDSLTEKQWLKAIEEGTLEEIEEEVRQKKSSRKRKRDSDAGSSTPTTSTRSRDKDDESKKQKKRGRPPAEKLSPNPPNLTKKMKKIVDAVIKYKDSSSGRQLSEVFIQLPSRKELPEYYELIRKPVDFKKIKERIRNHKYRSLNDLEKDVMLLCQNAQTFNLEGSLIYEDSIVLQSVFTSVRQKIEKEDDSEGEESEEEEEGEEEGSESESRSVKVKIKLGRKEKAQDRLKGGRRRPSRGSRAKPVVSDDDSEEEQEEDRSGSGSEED
- protocol summary: SMARCA4 Western blot degradation in MV4-11 cells
- Format: cell-based
- test context: MV4-11 cells, 24 h; read-out: SMARCA4 MSD MV411 degradation 24 h: Mean external-Abs DC50
Measured DC50, listed per entry for reference.

Which measured DC50 value corresponds to C#Cc1ccc(CNC(=O)[C@@H]2C[C@@H](O)CN2C(=O)[C@@H](NC(=O)[C@H]2CCC3(CC2)C[C@H](N2CCN(c4cnc(N5CCN6c7cc(-c8ccccc8O)nnc7NC[C@H]6C5)nc4)CC24CC4)C3)C(C)(C)C)cc1 (some centres unmarked) [I-267] ?
> 100 nM

Which measured DC50 value corresponds to C#Cc1ccc(CNC(=O)[C@@H]2C[C@@H](O)CN2C(=O)[C@@H](NC(=O)C2CCC3(CC2)CC(N2CCC(N4CCC(C(=O)N5CCN6c7cc(-c8ccccc8O)nnc7NC[C@H]6C5)CC4)CC2)C3)C(C)(C)C)cc1 (some centres unmarked) ?
> 100 nM

###

- target desc: SMARCA2 (Homo sapiens, UniProt P51531)
- protocol summary: SMARCA2 Western blot degradation in MV4-11 cells
- Format: cell-based
- Parameters: SMARCA2/SMARCA4 protein degradation selectivity in MV4-11 cells; endogenous in cells; host or cells: MV4-11
- test context: MV4-11, MV4-11 cells, 24 h; read-out: SMARCA2 MSD MV411 degradation 24 h: average Dmax %
Measured Dmax, listed per entry for reference.

Previously resolved entries follow.
molecule	target desc	Dmax
C#Cc1ccc([C@H](C)NC(=O)[C@@H]2C[C@@H](O)CN2C(=O)[C@@H](NC(=O)[C@H]2CCC3(CC2)C[C@H](N2CCN(c4cnc(N5CCN6c7cc(-c8ccccc8O)nnc7NC[C@H]6C5)nc4)CC2)C3)C(C)(C)C)cc1 (single isomer, unassigned) [I-233]	SMARCA2 (Homo sapiens, UniProt P51531)	70 to 90%
Cc1ncsc1-c1ccc(CNC(=O)[C@@H]2C[C@@H](O)CN2C(=O)[C@@H](OC(=O)N2CC3(CC(N4CCN(c5cnc(N6CCN7c8cc(-c9ccccc9O)nnc8NC[C@H]7C6)nc5)CC4)C3)C2)C(C)(C)C)cc1 [I-96]	SMARCA2 (Homo sapiens, UniProt P51531)	> 90%
C#Cc1ccc([C@H](C)NC(=O)[C@@H]2C[C@@H](O)CN2C(=O)[C@@H](NC(=O)N2CC3(CC(N4CCN(c5cnc(N6CCc7[nH]c8nnc(-c9ccccc9O)cc8c7[C@H]6C)nc5)CC4)C3)C2)C(C)(C)CCO)cc1 [I-369]	SMARCA2 (Homo sapiens, UniProt P51531)	> 90%
C#Cc1ccc(CNC(=O)[C@@H]2C[C@@H](O)CN2C(=O)[C@@H](NC(=O)C2CC3(C2)CC(N2CCC(N4CCC(N5CCN6c7cc(-c8ccccc8O)nnc7NC[C@H]6C5)CC4)CC2)C3)C(C)(C)C)cc1 (some centres unmarked) [I-137]	SMARCA2 (Homo sapiens, UniProt P51531)	70 to 90%
C#Cc1ccc(CNC(=O)[C@@H]2C[C@@H](O)CN2C(=O)[C@@H](NC(=O)N2CC3(CC(N4CCC(c5cnc(N6CCc7[nH]c8nnc(-c9ccccc9O)cc8c7[C@H]6C)nc5)CC4)C3)C2)C(C)(C)C)c(OCCCOC)c1 [I-128]	SMARCA2 (Homo sapiens, UniProt P51531)	> 90%
C#Cc1ccc(CNC(=O)[C@@H]2C[C@@H](O)CN2C(=O)[C@@H](NC(=O)N2CC3(CC(N4CCC(c5cnc(N6CCc7[nH]c8nnc(-c9ccccc9O)cc8c7[C@H]6CO)nc5)CC4)C3)C2)C(C)(C)C)cc1 [I-146]	SMARCA2 (Homo sapiens, UniProt P51531)	> 90%

Kindly state the measured Dmax obtained for C#Cc1ccc(CNC(=O)[C@@H]2C[C@@H](O)CN2C(=O)[C@@H](NC(=O)[C@H]2CCC3(CC2)C[C@H](N2CCC(N4CCC(N5CCN6c7cc(-c8ccccc8O)nnc7NC[C@H]6C5)CC4)CC2)C3)C(C)(C)C)c(Cl)c1 (single isomer, unassigned) [I-221] with SMARCA2 (Homo sapiens, UniProt P51531).
50 to 70%

Kindly state the measured Dmax obtained for C#Cc1ccc(CNC(=O)[C@@H]2C[C@@H](O)CN2C(=O)[C@@H](NC(=O)N2CC3(CC(N4CCC(N5CCC(N6CCc7[nH]c8nnc(-c9ccccc9O)cc8c7[C@H]6C)C5)CC4)C3)C2)C(C)(C)C)cc1 (mixture of isomers) [I-188] with SMARCA2 (Homo sapiens, UniProt P51531).
50 to 70%
